Protocol Text: in vitro
Experimental Parameters: hepatocytes
Lab note - cut at 40 µL/min/1e6 cells for hepatocyte CLint: Condition met if strictly below, Condition not met if not.

INSERT INTO measurements (molecule, cat) VALUES
  ('CS(=O)(=O)NC(=O)CCCc1c(-c2ccc(F)cc2)[nH]c2ccc(C#N)cc12', 'Condition met'),
  ('CN(CCNCCc1ccc(O)c2[nH]c(=O)sc12)C(=O)CCOCCc1ccccc1', 'Condition not met'),
  ('O=C(O)COc1ccc(C(F)(F)F)cc1CN1CCN(C(=O)c2ccccc2)CC1', 'Condition met'),
  ('O=C(O)CN1C(=O)C(=O)c2ccccc21', 'Condition met'),
  ('CC1Sc2c(C(=O)O)c(=O)c3cc(F)c(N4CCNCC4)cc3n21 (centres undefined) [ULIFLOXACIN]', 'Condition met'),
  ('COC1=CC(c2cc3ccccc3[nH]2)=N/C1=C\c1[nH]c(C)cc1C [OBATOCLAX]', 'Condition met'),
  ('Cc1cc(CCC[N+]23CCC(CC2)[C@@H](OC(=O)[C@](C)(c2ccccc2)N2CCCCC2)C3)ccn1', 'Condition met'),
  ('Cc1ccc(CO)cc1N(c1ccnc(Nc2cc(N3CCOCC3)cc(S(C)(=O)=O)c2)n1)C(C)C', 'Condition not met'),
  ('CC(C)(C)NS(=O)(=O)c1cncc(-c2ccc3nc(N)nn3c2)c1', 'Condition met');
